This section presents compounds with their documented pEC50 values.
# system-name: hTRPM8 (Homo sapiens)
# Sequence (Q7Z2W7 whole entry): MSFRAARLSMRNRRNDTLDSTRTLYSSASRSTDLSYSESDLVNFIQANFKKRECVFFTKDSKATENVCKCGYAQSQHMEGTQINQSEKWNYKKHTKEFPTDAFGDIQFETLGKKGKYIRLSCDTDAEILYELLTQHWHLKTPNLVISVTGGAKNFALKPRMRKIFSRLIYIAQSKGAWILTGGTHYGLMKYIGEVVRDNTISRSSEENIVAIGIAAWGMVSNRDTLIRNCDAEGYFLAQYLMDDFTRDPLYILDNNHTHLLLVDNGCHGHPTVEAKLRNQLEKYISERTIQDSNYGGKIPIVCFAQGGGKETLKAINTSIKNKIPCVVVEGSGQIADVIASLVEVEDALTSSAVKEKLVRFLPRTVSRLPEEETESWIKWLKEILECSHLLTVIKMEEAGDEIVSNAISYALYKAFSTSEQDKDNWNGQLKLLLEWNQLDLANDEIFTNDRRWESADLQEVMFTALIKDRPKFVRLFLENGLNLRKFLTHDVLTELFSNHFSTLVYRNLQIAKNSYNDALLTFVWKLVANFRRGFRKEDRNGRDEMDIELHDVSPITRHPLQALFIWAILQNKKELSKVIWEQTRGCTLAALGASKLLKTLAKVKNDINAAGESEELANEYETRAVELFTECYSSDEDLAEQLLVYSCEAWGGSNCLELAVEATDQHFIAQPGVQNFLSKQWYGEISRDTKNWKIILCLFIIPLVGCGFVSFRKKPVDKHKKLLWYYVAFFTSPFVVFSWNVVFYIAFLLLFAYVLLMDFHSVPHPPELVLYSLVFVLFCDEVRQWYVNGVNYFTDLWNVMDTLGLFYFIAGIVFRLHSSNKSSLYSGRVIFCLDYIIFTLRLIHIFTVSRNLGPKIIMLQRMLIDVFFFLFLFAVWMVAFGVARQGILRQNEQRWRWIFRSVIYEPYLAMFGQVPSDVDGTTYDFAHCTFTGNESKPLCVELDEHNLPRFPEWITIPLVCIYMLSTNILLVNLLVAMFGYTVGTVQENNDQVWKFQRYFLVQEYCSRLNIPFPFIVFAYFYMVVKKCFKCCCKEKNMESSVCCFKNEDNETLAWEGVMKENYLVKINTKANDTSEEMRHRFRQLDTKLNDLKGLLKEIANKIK
# method: Assay on TRPM8 modulators: calcium imaging (Fluo-4, Flexstation) in HEK293 cell line stably expressing hTRPM8
# measurement-parameters: HEK293 cells stably expressing hTRPM8; calcium influx, Fluo-4, Flexstation 3; sigmoidal dose-response fit
pEC50: −log10 of the molar value.

- CSC(C)C(=O)N1CCCCC1c1nc(-c2cc(C)ccc2C)c[nH]1 (centres unmarked) [Compound 20]: 6.00 to 6.52
- COc1ccc(-c2cnc(C3CCCCN3C(=O)C(C)SC)[nH]2)c(F)c1 (centres unmarked) [Compound 56]: > 7.30
- O=C(N1CCCCC1c1nc(-c2ccccc2)c[nH]1)C12CC(C1)C2 (centres unmarked) [Compound 184]: 6.00 to 6.52
- CSC(C)C(=O)N1CCCCC1c1nc(-c2ccccc2)no1 (centres unmarked) [Compound 105]: 6.00 to 6.52

Prompt: What value of pEC50 has been recorded for this entry: CCC(C)S(=O)(=O)N1CCCCC1c1ncc(-c2ccc(C)cc2)[nH]1 (centres unmarked) [Compound 204]
Completion: 4.46 to 6.00

These measurements were taken from patent US12528801B2.
